assay: Quantitative High-Throughput drug screen in 47 multiple myeloma cell lines against the NCATS MIPE library collection: RPMI8226_ATCC cell viability assay (AID 1919871); conditions: RPMI8226 myeloma viability, CellTiter-Glo ATP luminescence, 48 h; series mostly up to 45.8 µM; also: nearly all actives have a fitted effect of over 30% in size
Results filed as inconclusive are left out. Active and inactive are the calls of the source. Calls follow the shape of the dose curve; as a rule, active = well fitted cell-killing curve with a large enough effect; inconclusive = small, poorly fitted or top-dose-only effect, or effect the other way; inactive = no such curve, though single readings can be large or run the other way.
Labels: TRUE = active, FALSE = inactive

compound=COc1cc([C@@H]2c3cc4c(cc3[C@H](O)[C@H]3COC(=O)[C@@H]23)OCO4)cc(OC)c1OC qualitativelabel=TRUE
compound=O=C(CCCCCCC(=O)Nc1cccnc1)NO qualitativelabel=TRUE
compound="C=C1CCC2[C@](C)(CO)C(O)CC[C@]2(C)C1CC=C1C(=O)OCC1O (stereo partly specified)" qualitativelabel=TRUE
compound=C[C@H](CCC(=O)O)[C@H]1CC[C@H]2[C@@H]3[C@H](O)C[C@@H]4C[C@H](O)CC[C@]4(C)[C@@H]3CC[C@]12C qualitativelabel=FALSE
compound=CC(C)(O)[C@H]1CC[C@@](C)([C@H]2[C@@H](O)C[C@@]3(C)[C@@H]4C[C@H](O[C@@H]5O[C@H](CO)[C@@H](O)[C@H](O)[C@@H]5O)[C@H]5C(C)(C)[C@@H](O[C@@H]6OC[C@@H](O)[C@H](O)[C@@H]6O)CC[C@@]56C[C@@]46CC[C@]23C)O1 qualitativelabel=FALSE
compound=CN[C@@H]1C[C@H]2O[C@@](C)([C@H]1OC)n1c3ccccc3c3c4c(c5c6ccccc6n2c5c31)C(=O)N[C@H]4O qualitativelabel=TRUE
compound=CCCCCCCCc1ccc(CCC(N)(CO)CO)cc1 qualitativelabel=TRUE
compound=C[C@H](NC(=O)C(C#N)=Cc1cccc(Br)n1)c1ccccc1 qualitativelabel=TRUE
compound=c1ccc2c(Oc3nc(Nc4ccc(N5CCOCC5)cc4)c4ncn(C5CCCCC5)c4n3)cccc2c1 qualitativelabel=FALSE
compound=O=C1NC(=O)C(=Cc2ccc3nccc(-c4ccncc4)c3c2)S1 qualitativelabel=TRUE
compound="CCCCCCCN(CC)CCCC(O)c1ccc(NS(C)(=O)=O)cc1 (stereo unspecified)" qualitativelabel=FALSE
